B1: glmS ribozyme (parent)
chain: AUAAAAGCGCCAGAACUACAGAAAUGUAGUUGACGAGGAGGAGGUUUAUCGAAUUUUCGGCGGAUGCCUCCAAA

# Variants of: B1
# test-details: self-cleavage kobs at 640 uM GlcN6P; higher = faster cleavage; RNA array
# conditions-used: with glucosamine-6-phosphate
Fewer inactive variants are shown than the library holds.
readout-type: self-cleavage kobs at 640 uM GlcN6P

Worked cases, answers included:
A42G U57A ... 0.000118 s⁻¹
G44U G60C G62U ... < 1e-05 s⁻¹
A14C C34A U46G ... < 1e-05 s⁻¹
A14C G44C C67G ... 0.000389 s⁻¹
G7C G32U A36U G40U A42U A52G ... < 1e-05 s⁻¹
U47G G63U C68G ... 6.95e-05 s⁻¹
U30C G32U C34G G51U ... < 1e-05 s⁻¹
U31G G41U U47G ... 7.13e-05 s⁻¹
G44A G63A ... < 1e-05 s⁻¹
C16U G60U C68A ... < 1e-05 s⁻¹

Report self-cleavage kobs at 640 uM GlcN6P for C8U G63U please.
< 1e-05 s⁻¹

Any idea what its self-cleavage kobs at 640 uM GlcN6P is? The variant is C8U A39C
< 1e-05 s⁻¹

Would you mind telling me what self-cleavage kobs at 640 uM GlcN6P value was observed for A33C U54A ?
9.44e-05 s⁻¹

Would you kindly share the measured self-cleavage kobs at 640 uM GlcN6P for G44U C61A C67U C70G ?
< 1e-05 s⁻¹

Query (variant): G7U U30G G63U ; field requested: self-cleavage kobs at 640 uM GlcN6P
< 1e-05 s⁻¹

Item G66C C67G has what recorded self-cleavage kobs at 640 uM GlcN6P?
2.84e-05 s⁻¹

What does the record list as self-cleavage kobs at 640 uM GlcN6P for C16G A48G C68A C71G ?
0.000118 s⁻¹

Quick one: self-cleavage kobs at 640 uM GlcN6P for A14G A33G G60U ?
< 1e-05 s⁻¹

Quick one: self-cleavage kobs at 640 uM GlcN6P for U46C C68U ?
0.000387 s⁻¹

For the variant shown here, C11U C16A , give the reported self-cleavage kobs at 640 uM GlcN6P.
4.38e-05 s⁻¹

self-cleavage kobs at 640 uM GlcN6P for G29A U30A U31C ?
0.000152 s⁻¹

Any idea what its self-cleavage kobs at 640 uM GlcN6P is? The variant is A14C U47G
0.000208 s⁻¹

Name the reported self-cleavage kobs at 640 uM GlcN6P value associated with the variant G13U A36G
< 1e-05 s⁻¹

Request the reported self-cleavage kobs at 640 uM GlcN6P associated with C11A U49A
< 1e-05 s⁻¹

Return reported self-cleavage kobs at 640 uM GlcN6P; argument: A14C G40U
0.000144 s⁻¹

So what does the record say about self-cleavage kobs at 640 uM GlcN6P for C50G A53C C67G ?
0.000198 s⁻¹

# self-cleavage kobs at 640 uM GlcN6P lookup, item G13U G59C
< 1e-05 s⁻¹

Requested read-out: self-cleavage kobs at 640 uM GlcN6P. Entry: G43A A64U C67A
< 1e-05 s⁻¹

Quick one: self-cleavage kobs at 640 uM GlcN6P of G44A U56G ?
5.52e-05 s⁻¹
